Cited source: patent US20240132431A1

Target: Bcl-2 protein (Recombinant Human Bcl-2 Protein) (Homo sapiens)
Construct: purchased Novus NBP2-34889
Sequence (P10415 whole entry): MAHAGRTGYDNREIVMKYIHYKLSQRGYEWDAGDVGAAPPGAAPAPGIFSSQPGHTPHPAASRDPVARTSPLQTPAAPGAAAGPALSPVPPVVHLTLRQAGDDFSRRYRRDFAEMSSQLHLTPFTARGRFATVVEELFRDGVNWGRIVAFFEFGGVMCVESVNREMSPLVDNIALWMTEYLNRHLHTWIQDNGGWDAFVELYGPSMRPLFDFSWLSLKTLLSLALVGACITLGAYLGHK
Test: Binding evaluation of mixture library compounds to Bcl-2 using AS-MS (affinity selection mass spectrometry)
Details: AS-MS, mixture library, Bcl-2; replicate n = 2; ASMS Ratio(%)=(A−C)/B×100
ENDPOINT LABEL: ASMS ratio (%) n = 2

CHEMICAL STRUCTURE	SYSTEM	ENDPOINT LABEL	ASSAY VALUE
CCOc1cccc(-c2ccc(CN3CCN(c4ccc(C(=O)NS(=O)(=O)CC56CC7CC(CC(C7)C5)C6)cc4)CC3)cc2C)c1	Bcl-2 protein (Recombinant Human Bcl-2 Protein) (Homo sapiens)	ASMS ratio (%) n = 2	0.4
CCOc1cncc(-c2ccc(C(=O)N3CCN(c4ccc(C(=O)NS(C)(=O)=O)cc4)CC3)c3ccccc23)c1	Bcl-2 protein (Recombinant Human Bcl-2 Protein) (Homo sapiens)	ASMS ratio (%) n = 2	1.5
CCOc1cccc(-c2ccc(CN3CCN(c4ccc(C(=O)NS(=O)(=O)CC56CC7CC(CC(C7)C5)C6)cc4)CC3)cc2F)c1	Bcl-2 protein (Recombinant Human Bcl-2 Protein) (Homo sapiens)	ASMS ratio (%) n = 2	3.6
CCOc1cccc(-c2ccccc2CN2CCN(c3ccc(C(=O)NS(=O)(=O)CC45CC6CC(CC(C6)C4)C5)cc3)CC2)c1	Bcl-2 protein (Recombinant Human Bcl-2 Protein) (Homo sapiens)	ASMS ratio (%) n = 2	−2.9
